Where do the numbers come from? From PubChem BioAssay AID1645848.

# assayConditions: buffer; pH 7.4; 6.0 h; 150.0 µM

{"compound": "Cc1ccccc1C(=O)n1ccc2cc(-c3nc(NC(=O)Cc4ccc5c(c4)OCO5)sc3C)ccc21", "solubility kinetic": "< 1 µg/mL"}
{"compound": "Cc1cccc(S(=O)(=O)c2cn(Cc3ccccc3)c3cc(N4CCCC(C)C4)c(F)cc3c2=O)c1 (stereo not given)", "solubility kinetic": "< 1 µg/mL"}
{"compound": "Cc1ccc(-c2csc(NC(=O)c3ccncc3NS(=O)(=O)c3ccc(C)cc3)n2)cc1", "solubility kinetic": "< 1 µg/mL"}
{"compound": "CCOC(=O)CCNc1cc(N2CCc3ccccc3CC2)nc(-c2cccnc2)n1", "solubility kinetic": "4.04 µg/mL"}
{"compound": "O=[S+]([O-])(Nc1cccc2ccccc12)c1ccc(NCc2ccc(Cl)cc2O)cc1", "solubility kinetic": "< 1 µg/mL"}
{"compound": "Cc1cc(-c2nnc3n2CCCCC3)c(C)n1-c1ccc(F)cc1", "solubility kinetic": "35.3 µg/mL"}
{"compound": "O=C1Nc2ccccc2/C1=C\\c1cc(Br)c(O)c(Br)c1", "solubility kinetic": "> 58 µg/mL"}
{"compound": "O=C(c1ccc2c(c1)ncn2-c1ccc(Cl)cc1)N1CCCCC1", "solubility kinetic": "> 50 µg/mL"}
{"compound": "COC[C@@H]1CN(C(=O)c2n[nH]c3ccccc23)C[C@H]1c1nc(C)no1", "solubility kinetic": "> 100 µg/mL"}
{"compound": "Cn1ccc2c(C(=O)NCc3cccnc3)nc(-c3ccccc3C#N)cc21", "solubility kinetic": "< 1 µg/mL"}

----------
# assayConditions: buffer; pH 7.4; 6.0 h; 150.0 µM

{"structureNotation": "CCN(c1ccccc1)S(=O)(=O)c1cc(C(=O)Nc2ccc(Br)cc2)ccc1F", "readoutQualifier": "<", "solubility kinetic (µg/mL)": 1}
{"structureNotation": "CNc1ccc(Br)cc(C(=O)/C=C/c2ccc(OC)cc2OC)c1=O", "readoutQualifier": "=", "solubility kinetic (µg/mL)": 1.94}
{"structureNotation": "Fc1cc(Nc2nc(-c3ccncc3)nc3ccccc23)ccc1-c1ccc2[nH]ncc2c1", "readoutQualifier": "<", "solubility kinetic (µg/mL)": 1}
{"structureNotation": "CCC[C@H](NC(=O)/C(C#N)=C/c1cccc(Br)n1)c1ccccc1", "readoutQualifier": "<", "solubility kinetic (µg/mL)": 1}
{"structureNotation": "CC(C)N(CCC(=O)c1ccc2ccccc2c1)Cc1ccccc1", "readoutQualifier": "=", "solubility kinetic (µg/mL)": 13.4}

----------
# maps each entry to its solubility kinetic
# assayConditions: buffer; pH 7.4; 6.0 h; 150.0 µM

{"molecule": "Cc1ccc(C(=O)Nc2ccc3oc(-c4cccnc4)nc3c2)cc1[N+](=O)[O-]", "solubility kinetic": "< 1 µg/mL"}
{"molecule": "Ic1ccccc1CNC1C2CCN(CC2)C1C(c1ccccc1)c1ccccc1 (configuration not stated)", "solubility kinetic": "> 75 µg/mL"}
{"molecule": "COc1cccc(NCCC2(c3ccccc3)CC(C)(C)OC(C)(C)C2)c1", "solubility kinetic": "< 1 µg/mL"}
{"molecule": "O=C(O)C1CCN(c2ncc(-c3ccc4c(c3)OCCCO4)s2)CC1", "solubility kinetic": "> 53 µg/mL"}
{"molecule": "CCn1c(SCc2ccc(C#N)cc2)nnc1-c1cccc(Cl)c1", "solubility kinetic": "34.2 µg/mL"}
{"molecule": "Cc1ccc(NS(=O)(=O)c2ccc3[nH]c4c(c3c2)CCCCCC4)cc1", "solubility kinetic": "< 1 µg/mL"}
{"molecule": "CCCc1cc(C)[nH]c(=O)c1CNC(=O)c1cc(-c2ccc(N3CCN(C(C)C)CC3)nc2)cc2c1cnn2C(C)C", "solubility kinetic": "41.1 µg/mL"}
{"molecule": "COc1ccc(CNc2ccc(S(=O)(=O)Nc3nccs3)cc2)c(O)c1", "solubility kinetic": "45.4 µg/mL"}
{"molecule": "CC(C)(C)NS(=O)(=O)c1ccc(-c2ccc3[nH]nc(N)c3c2)cc1", "solubility kinetic": "> 51 µg/mL"}
{"molecule": "CC1=C(C(=O)Nc2nncs2)C2(CCCC2)N=C(Nc2nc3ccccc3o2)N1", "solubility kinetic": "< 1 µg/mL"}
{"molecule": "Cc1cc(F)c(C(=O)Nc2cccc(-c3nncn3C(C)C)n2)cc1-n1cnc(C2CC2)c1", "solubility kinetic": "49.8 µg/mL"}
{"molecule": "CN1Cc2c(ccc3c2OCO3)[C@@H]2[C@H]1c1cc3c(cc1C[C@@H]2O)OCO3", "solubility kinetic": "> 52 µg/mL"}
{"molecule": "CNc1nc2c(s1)C(c1ccccc1F)CC(=O)N2 (configuration not stated)", "solubility kinetic": "13.7 µg/mL"}
{"molecule": "CCOC(=O)c1ccc(N2C(=O)c3n[nH]c(-c4cccs4)c3C2c2ccc(OCC)cc2)cc1 (configuration not stated)", "solubility kinetic": "< 1 µg/mL"}
{"molecule": "COCCNS(=O)(=O)c1cc(-c2nn3c(C)nnc3c3ccccc23)ccc1C", "solubility kinetic": "29 µg/mL"}
{"molecule": "Cc1ccc(S(=O)(=O)N2CCN(C(=O)c3cc4c(s3)CCC4)CC2)cc1", "solubility kinetic": "< 1 µg/mL"}
{"molecule": "COc1ccc(C2c3[nH]c4ccc(OC)cc4c3CCN2C(=O)Nc2ccccc2)cc1 (configuration not stated)", "solubility kinetic": "1.06 µg/mL"}
{"molecule": "O=C(O)c1ccc(O)c2ncc(N3CCCN(CCc4cccc5ccccc45)CC3)cc12", "solubility kinetic": "21.4 µg/mL"}
{"molecule": "CC(=O)c1ccc(N2CCN(C(=O)c3ccc4c(c3)CC(=O)N4)CC2)cc1", "solubility kinetic": "> 54 µg/mL"}
{"molecule": "OC(CCN1CCCCC1)c1ccc(-c2ccccc2)cc1 (configuration not stated)", "solubility kinetic": "> 44 µg/mL"}
{"molecule": "Cn1cnc(-c2nccc3c(=O)[nH]c(OCCCC(F)(F)F)nc23)c1", "solubility kinetic": "> 52 µg/mL"}
{"molecule": "COc1ccc(CN2CCNc3cc(Nc4ccccc4)ncc3C2)cc1", "solubility kinetic": "45.4 µg/mL"}
{"molecule": "COc1ccc(NC(=O)C2=C(C)NC(Nc3nc4ccccc4o3)=NC2c2ccccc2Br)cc1 (configuration not stated)", "solubility kinetic": "< 1 µg/mL"}
{"molecule": "O=C(Cc1nc2ccc(Cl)cc2[nH]1)Nc1ccc(S(=O)(=O)Nc2nccs2)cc1", "solubility kinetic": "4.93 µg/mL"}
{"molecule": "CCOc1ccc(CN2C(=O)c3ccccc3Sc3ccc(C(=O)NC4CCC(C)CC4)cc32)cc1 (configuration not stated)", "solubility kinetic": "6.78 µg/mL"}
{"molecule": "c1ccc2[nH]c(Nc3nc(-c4ccncc4)nc4ccccc34)nc2c1", "solubility kinetic": "< 1 µg/mL"}
{"molecule": "COC(C)(C)CCn1nc(Nc2c(C)cccc2C)c2cnc(Nc3ccc(OCCN4CCCC4)c(F)c3)nc21", "solubility kinetic": "28.3 µg/mL"}
{"molecule": "Cc1ccc(S(=O)(=O)Nc2cnccc2C(=O)Nc2nc(-c3cc(Br)cs3)cs2)cc1", "solubility kinetic": "0.958 µg/mL"}
{"molecule": "CCc1cccc(NS(=O)(=O)c2ccc3c(c2)CC(C)N3C(=O)C2CC2)c1 (configuration not stated)", "solubility kinetic": "< 1 µg/mL"}
{"molecule": "O=C(c1ccccc1)N1CCN(c2nc(-c3ccc(Br)cc3)cs2)CC1", "solubility kinetic": "< 1 µg/mL"}
{"molecule": "O=c1[nH]c(N2CCOCC2)nc2c1CCN(Cc1ccc(Cl)cc1F)CC2", "solubility kinetic": "> 58 µg/mL"}
{"molecule": "NC(=O)C1CCN(c2nc(-c3ccc4c(c3)OCCO4)cs2)CC1", "solubility kinetic": "34.6 µg/mL"}
{"molecule": "COc1ccc(OC)c(-c2nc3c(C#N)c[nH]n3c2NC2CCCCC2)c1", "solubility kinetic": "12.2 µg/mL"}
{"molecule": "Cc1ccc(S(=O)(=O)Nc2cnccc2C(=O)Nc2nc3ccccc3s2)cc1", "solubility kinetic": "> 63 µg/mL"}
{"molecule": "Fc1ccc(Nc2ccnc(-c3ccncc3)n2)cc1F", "solubility kinetic": "1.22 µg/mL"}
{"molecule": "CC(C)c1ccccc1-c1ncc(F)c(NCc2ccc(-c3cccnc3)s2)n1", "solubility kinetic": "0.132 µg/mL"}
{"molecule": "O=C1CCCC2=C1C(c1ncccc1Br)N=C(Nc1nc3ccccc3o1)N2 (configuration not stated)", "solubility kinetic": "7.87 µg/mL"}
{"molecule": "Cc1cccc(CN2CCN(c3ccccn3)CC2)c1", "solubility kinetic": "30.9 µg/mL"}
{"molecule": "c1cc(-c2cc(-c3ccncc3)c3cncn3c2)c2[nH]ccc2c1", "solubility kinetic": "< 1 µg/mL"}
{"molecule": "O=c1cc(-c2nc(Nc3ccc(F)c(F)c3)c3ccccc3n2)cc[nH]1", "solubility kinetic": "11.9 µg/mL"}
{"molecule": "Nc1ccccc1CNc1ccc(S(=O)(=O)Nc2nccs2)cc1", "solubility kinetic": "> 53 µg/mL"}
{"molecule": "C=C1C(=O)O[C@@H]2[C@H]3O[C@]3(C)CC/C=C(\\C)CC[C@@H]12", "solubility kinetic": "7.28 µg/mL"}
